Assay: Inhibition of yeast alpha-glucosidase using p-nitrophenyl a-D-glucopyranoside as substrate by spectrophotometry
Design: species or system Saccharomyces cerevisiae
Hi there, I'd appreciate the recorded pIC50 for every entry that follows.
Give bare numbers, as −log10 of the molar value.

Reference set (5 entries):
CC(=O)Oc1cc([C@@H]2c3c(O)cc(O)cc3[C@H]3[C@H](c4ccc(O)c(OC(C)=O)c4)c4c(O)cc(O)cc4[C@@H]23)ccc1O = 3.88
OC[C@H]1NC[C@H](O)[C@@H](O)[C@@H]1O = 4.69
COc1cc(/C=C2/c3cc(O)cc(O)c3[C@H](c3ccc(O)c(OC)c3)[C@H]2c2cc(O)cc(O)c2)ccc1O = 4.15
Oc1cc(O)cc(/C=C/c2ccc3c(c2)O[C@H](c2cc(O)cc(O)c2)[C@@H](c2ccc(O)c(O)c2)O3)c1 = 4.63
COc1cc([C@@H]2c3c(O)cc(O)cc3[C@H]3[C@H](c4ccc(O)c(O)c4)c4c(O)cc(O)cc4[C@@H]23)ccc1O (racemic) = 3.96

Hi, could you look up pIC50 for each item in my list?
1. CC(=O)Oc1cc([C@H]2Oc3ccc(/C=C/c4cc(O)cc(O)c4)cc3O[C@@H]2c2cc(O)cc(O)c2)ccc1O (racemic)
2. COc1cc([C@H]2Oc3c(O)cc(/C=C/c4cc(O)cc(O)c4)cc3[C@@H]2c2cc(O)cc(O)c2)ccc1O (relative stereo)
3. Oc1cc(O)cc(/C=C/c2ccc(O)c(O)c2)c1
4. Oc1cc(O)c2c(c1)[C@H]1[C@H](c3ccc(O)c(O)c3)c3c(O)cc(O)cc3[C@H]1[C@@H]2c1ccc(O)c(O)c1
5. Oc1cc(O)cc(/C=C/c2cc(O)c3c(c2)[C@H](c2cc(O)cc(O)c2)[C@@H](c2ccc(O)c(O)c2)O3)c1 (racemic)

[4.16, 5.52, 4.46, 4.10, 5.95]
